// data source = patent US20180207148A1

experiment: clinical; details: human, in vivo, po, 420 mg/m2
Readout: Vd/F (L)
Provide only the numeric value, understood in L.

// recorded Vd/F for CC(=O)O[C@H]1C(=O)[C@@]2(C)[C@H]([C@H](OC(=O)c3ccccc3)[C@]3(O)C[C@H](OC(=O)[C@H](O)[C@@H](NC(=O)c4ccccc4)c4ccccc4)C(C)=C1C3(C)C)[C@]1(OC(C)=O)CO[C@@H]1C[C@@H]2O [Paclitaxel] : 7180

---

assay: Paclitaxel pharmacokinetics in rats after single oral dose with Compound A; details: rat, in vivo, 20 mg/kg
Readout: AUC(0-t) (ng·h/mL)
Provide only the numeric value, understood in ng·h/mL.

// recorded AUC(0-t) for CC(=O)O[C@H]1C(=O)[C@@]2(C)[C@H]([C@H](OC(=O)c3ccccc3)[C@]3(O)C[C@H](OC(=O)[C@H](O)[C@@H](NC(=O)c4ccccc4)c4ccccc4)C(C)=C1C3(C)C)[C@]1(OC(C)=O)CO[C@@H]1C[C@@H]2O [Paclitaxel] : 3010
